target: recombinant human XIAP-BIR3 protein (Homo sapiens, UniProt P98170); construct: recombinant human XIAP-BIR3 protein; purchased Reaction biology APT-11-374; test: Recombinant human XIAP-BIR3 biochemical assay (HTRF, peptide displacement); details: 3.7 nM XIAP-BIR3, 7.6 nM AbuRPF-K(5-Fam)-NH2 peptide, read-out: Protein binding IC50 (nM) XIAP
Sequence (P98170 241-356 limits assumed): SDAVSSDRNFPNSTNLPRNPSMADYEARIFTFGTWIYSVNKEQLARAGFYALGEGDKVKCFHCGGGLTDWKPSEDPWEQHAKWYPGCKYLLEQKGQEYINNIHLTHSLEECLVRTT
QUANTITY_NAME: IC50 (nM)

Known IC50 results, listed for orientation:
C[C@@H]1CN(CC(=O)N2c3cc(Cc4ccc(F)cc4)c(C(=O)Nc4ccc(F)cc4)nc3OC[C@@H]2C)[C@@H](CN2[C@H](C)COC[C@H]2C)CN1 | 7.9
C[C@@H]1CN(CC(=O)N2c3cc(Cc4ccc(F)cc4)c(C(=O)NC(C)(C)C)nc3OC[C@@H]2C)[C@@H](CN2[C@H](C)COC[C@H]2C)CN1 | 6.8
C[C@@H]1CN(CC(=O)N2c3cc(Cc4ccc(F)cc4)c(CO)nc3OC[C@@H]2C)[C@@H](CN2CCOC[C@H]2C(F)(F)F)CN1 [Compound 91A] | 30

1 = CCNc1nc2c(cc1Cc1ccc(F)cc1)N(C(=O)CN1C[C@@H](C)NC[C@@H]1CN1[C@H](C)COC[C@H]1C)[C@@H](C)CO2
2 = COCCNc1nc2c(cc1Cc1ccc(F)cc1)N(C(=O)CN1C[C@@H](C)NC[C@@H]1CN1[C@H](C)COC[C@H]1C)[C@@H](C)CO2
3 = C[C@@H]1CN(CC(=O)N2c3cc(Cc4ccc(F)cc4)c(C(=O)N4CCC(F)(F)CC4)nc3OC[C@@H]2C)[C@@H](CN2[C@H](C)COC[C@H]2C)CN1
List these items ordered by IC50, big to small. I'd appreciate it if you listed the labels in the requested order. 1, 2, 3
